System: membrane-bound D-glucose dehydrogenase (GlcDH) from Arthrobacter globiformis C224
Construct: gene gcd; native, purified from membrane fraction of C224 (Triton X-114, precipitations, hydroxylapatite); 87 kDa, single SDS-PAGE band, no subunits
Assay: single-substrate kinetics, Lineweaver-Burk
Format: biochemical
Conditions: pH 5.0 (Table 5); general assay uses ferricyanide as electron acceptor in McIlvaine buffer, stated there as pH 3.0
Assignment: determine reported Km for the given compounds.
Answers are plain numbers, in µM.

>>> test_result("OC[C@H]1O[C@H](O[C@H]2[C@H](O)[C@@H](O)C(O)O[C@@H]2CO)[C@H](O)[C@@H](O)[C@@H]1O (stereo partly shown)")
590
>>> test_result("OC[C@H]1OC(O)[C@H](O)[C@@H](O)[C@@H]1O (stereo partly shown)")
210
>>> test_result("OC1OC[C@@H](O)[C@H](O)[C@H]1O (stereo partly shown)")
340

Returns the measured Km for the input compound. Input: OC[C@H]1OC(O)[C@H](O)[C@@H](O)[C@H]1O (stereo partly shown) 460
